Each recorded value in this set is attributed to patent US20230381281A1.

Would you kindly list In vitro activity compared to native peptide (%) vs Glucagon for each of these binders?
TARGET_DESC: human GCG receptor (human, UniProt P47871 26-477)
Sequence (P47871 26-477): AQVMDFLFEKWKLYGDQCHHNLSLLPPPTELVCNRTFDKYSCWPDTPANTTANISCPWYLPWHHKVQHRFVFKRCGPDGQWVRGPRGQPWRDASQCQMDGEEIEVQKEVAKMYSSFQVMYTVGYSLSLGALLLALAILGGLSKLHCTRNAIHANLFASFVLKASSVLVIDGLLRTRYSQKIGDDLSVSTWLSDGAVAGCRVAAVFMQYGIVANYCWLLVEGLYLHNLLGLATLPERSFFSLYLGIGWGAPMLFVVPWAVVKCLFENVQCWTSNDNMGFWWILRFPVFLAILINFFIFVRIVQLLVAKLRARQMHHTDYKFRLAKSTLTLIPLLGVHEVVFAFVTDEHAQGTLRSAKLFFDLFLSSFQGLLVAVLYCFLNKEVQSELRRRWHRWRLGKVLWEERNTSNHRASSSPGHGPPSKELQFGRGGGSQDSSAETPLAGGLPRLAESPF
TEST_DETAILS: cell-based or functional assay
Bridge positions count the residues as written; N and C are the ends. Square brackets hold non-standard residues; d marks the D form. Ends that are not written are not given here. Aib = CC(C)(N)C(=O)O
Give just the number in %; leave the unit off.

Q. Complete the entry with In vitro activity compared to native peptide (%) vs Glucagon for H[Aib]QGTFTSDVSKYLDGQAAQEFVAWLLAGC [Triple agonist of SEQ ID NO: 9]
A. 0.13

Q. // fetch In vitro activity compared to native peptide (%) vs Glucagon given entry Y[Aib]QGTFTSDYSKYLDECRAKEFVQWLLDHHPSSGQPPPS (bridge 16-20) [Triple agonist of SEQ ID NO: 21]
A. 267
